# testedSystem: T1, human CD8αα homodimer, recombinant protein (Acro Biosystems) (human, UniProt P01732 22-182)
# T1 construct: also called CD8αα antigen; biotinylated CD8α recombinant protein (CDA-H82E3)
# T1 sequence (P01732 22-182 limits assumed): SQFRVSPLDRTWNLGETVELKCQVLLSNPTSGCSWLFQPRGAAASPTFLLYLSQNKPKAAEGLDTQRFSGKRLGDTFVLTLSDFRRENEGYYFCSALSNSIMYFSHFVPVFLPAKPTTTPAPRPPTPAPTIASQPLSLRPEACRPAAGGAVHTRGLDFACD
# procedureSummary: BLI kinetic rate analysis, Fab fragment (temperature not given)
Task for the reader: assign each of the following binders its reported pKd.
// scale note: pKd = -log10(conc_M); give the bare number

Record summary for CBD1622 Fab (VL D30S and VH N55Q of CBD1033) (Fab, V domains shown, also called D30S and N55Q) VH: QVQLVQSGAEVKKPGASVKVSCKASRYTFTDYNLHWVRQAPGQGLEWMGFIYPYQGGTGYAQKFQGRVTMTVDTSTSTAYMELSSLRSEDTAVYYCARDHRYNEGVSFDYWGQGTTVTVSS VL: DIQLTQSPSSLSASVGDRATITCRASESVSGFGNSFMNWYQQKPGKAPKLLIYLASNLESGVPSRFSGSGSGTDFTLTISSVQPEDFATYYCQQNNEDPYTFGQGTKLEIK : reported pKd = 8.54

Record summary for CBD1445 Fab (VL D30A of CBD1033) (Fab, V domains shown) VH: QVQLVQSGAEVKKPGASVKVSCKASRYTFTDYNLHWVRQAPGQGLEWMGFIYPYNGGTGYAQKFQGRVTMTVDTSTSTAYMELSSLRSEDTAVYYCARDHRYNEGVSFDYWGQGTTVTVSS VL: DIQLTQSPSSLSASVGDRATITCRASESVAGFGNSFMNWYQQKPGKAPKLLIYLASNLESGVPSRFSGSGSGTDFTLTISSVQPEDFATYYCQQNNEDPYTFGQGTKLEIK : reported pKd = 7.81

Record summary for CBD1623 Fab (VL D30S and VH N55A of CBD1033) (Fab, V domains shown, also called D30S and N55A) VH: QVQLVQSGAEVKKPGASVKVSCKASRYTFTDYNLHWVRQAPGQGLEWMGFIYPYAGGTGYAQKFQGRVTMTVDTSTSTAYMELSSLRSEDTAVYYCARDHRYNEGVSFDYWGQGTTVTVSS VL: DIQLTQSPSSLSASVGDRATITCRASESVSGFGNSFMNWYQQKPGKAPKLLIYLASNLESGVPSRFSGSGSGTDFTLTISSVQPEDFATYYCQQNNEDPYTFGQGTKLEIK : reported pKd = 9.21

These measurements were taken from patent US20250195685A1.
